Test system: 898857-211-R-J1-PDC complex spheroids, growth % test/control
Assay: Anticancer human tumor 898857-211-R-J1-PDC patient-derived melanoma cell line growth inhibition [RAS]
Conditions: second compound 3.16 µM; first compound 0.00316 µM; hits give low values
Text: RAS pathway inhibitors in Combinations in Complex Spheroids A high-throughput screen of multi-cell type tumor spheroids was designed to identify active combinations of RAS pathway inhibitors and targeted small molecules. Complex spheroids include a stromal component modeled by human endothelial cells (HUVEC) and fibroblasts modeled by human mesenchymal stem cells (MSCs). […] Compounds. […] If the clinical Cmax for an agent had not been determined, the highest concentration tested was 10 microM. […]
Each item that follows carries a reported viability, T/C.

CCN1CCN(Cc2ccc(Nc3ncc(F)c(-c4cc(F)c5nc(C)n(C(C)C)c5c4)n3)nc2)CC1 + C#Cc1c(F)ccc2cc(O)cc(-c3ncc4c(N5CC6CCC(C5)N6)nc(OCC56CCCN5CC(F)C6)nc4c3F)c12 = 107%
C=CC(=O)N1CCN(c2nc(OCC3CCCN3C)nc3c(F)c(-c4nc(N)cc(C)c4C(F)(F)F)c(Cl)cc23)C(C)C1 (stereo unspecified) + C#Cc1c(F)ccc2cc(O)cc(-c3ncc4c(N5CC6CCC(C5)N6)nc(OCC56CCCN5CC(F)C6)nc4c3F)c12 = 99.4%
Nc1ccn(C2OC(CO)C(O)C2(F)F)c(=O)n1 (stereo unspecified) + C#Cc1c(F)ccc2cc(O)cc(-c3ncc4c(N5CC6CCC(C5)N6)nc(OCC56CCCN5CC(F)C6)nc4c3F)c12 = 99%
O=C(c1ccc(F)c(F)c1Nc1ccc(I)cc1F)N1CC(O)([C@@H]2CCCCN2)C1 + C#Cc1c(F)ccc2cc(O)cc(-c3ncc4c(N5CC6CCC(C5)N6)nc(OCC56CCCN5CC(F)C6)nc4c3F)c12 = 59.7%
C=CC(=O)Nc1cc(Nc2nccc(-c3cn(C)c4ccccc34)n2)c(OC)cc1N(C)CCN(C)C + C#Cc1c(F)ccc2cc(O)cc(-c3ncc4c(N5CC6CCC(C5)N6)nc(OCC56CCCN5CC(F)C6)nc4c3F)c12 = 109%

Query: Tell me the measured viability, T/C of CC(C)n1nc(-c2ccc3oc(N)nc3c2)c2c(N)ncnc21 + C#Cc1c(F)ccc2cc(O)cc(-c3ncc4c(N5CC6CCC(C5)N6)nc(OCC56CCCN5CC(F)C6)nc4c3F)c12 , please.
Result: 102%

###

Reported viability, T/C is given for each of the following compounds.
System: 898857-211-R-J1-PDC complex spheroids, growth % test/control
Assay: Anticancer human tumor 898857-211-R-J1-PDC cell line growth inhibition [RAS];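 also: spheroids exposed to compound for seven days before readout; 100% = DMSO vehicle control wells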
Conditions: second compound 0.000949 µM; first compound 0.0316 µM; hits give low values
Express the result in % but write the number alone.

O=C(c1ccc(F)c(F)c1Nc1ccc(I)cc1F)N1CC(O)([C@@H]2CCCCN2)C1 + CCn1c(-c2cc(N3CCN(C)CC3)cnc2C(C)OC)c2c3cc(ccc31)-c1csc(n1)CC(NC(=O)C1CC1C)C(=O)N1CCCC(N1)C(=O)OCC(C)(C)C2 = 16.8
Nc1ccn(C2OC(CO)C(O)C2(F)F)c(=O)n1 (stereo not drawn) + CCn1c(-c2cc(N3CCN(C)CC3)cnc2C(C)OC)c2c3cc(ccc31)-c1csc(n1)CC(NC(=O)C1CC1C)C(=O)N1CCCC(N1)C(=O)OCC(C)(C)C2 = 4.42
CC(C)n1nc(-c2ccc3oc(N)nc3c2)c2c(N)ncnc21 + CCn1c(-c2cccnc2C(C)OC)c2c3cc(ccc31)N1CCOC(CC(NC(=O)C(C(C)C)N(C)C(=O)C3(F)CCN(C(=O)C#CC(C)(C)N(C)C)CC3)C(=O)N3CCCC(N3)C(=O)OCC(C)(C)C2)C1 = 46.4

Query: Provide value of viability, T/C for this record tested with 898857-211-R-J1-PDC complex spheroids, growth % test/control: C=CC(=O)Nc1cc(Nc2nccc(-c3cn(C)c4ccccc34)n2)c(OC)cc1N(C)CCN(C)C + CCn1c(-c2cc(N3CCN(C)CC3)cnc2C(C)OC)c2c3cc(ccc31)-c1csc(n1)CC(NC(=O)C1CC1C)C(=O)N1CCCC(N1)C(=O)OCC(C)(C)C2
Result: 106

Query: Param readout = viability, T/C; param system = 898857-211-R-J1-PDC complex spheroids, growth % test/control; param query = C[C@@H](NC(=O)c1ncnc(N)c1Cl)c1ncc(C(=O)Nc2cc(C(F)(F)F)c(Cl)cn2)s1 + CCn1c(-c2cccnc2C(C)OC)c2c3cc(ccc31)N1CCOC(CC(NC(=O)C(C(C)C)N(C)C(=O)C3(F)CCN(C(=O)C#CC(C)(C)N(C)C)CC3)C(=O)N3CCCC(N3)C(=O)OCC(C)(C)C2)C1 ; response: value
Result: 121

Query: Hello, I am looking for reported viability, T/C with 898857-211-R-J1-PDC complex spheroids, growth % test/control for Nc1ccn(C2OC(CO)C(O)C2(F)F)c(=O)n1 (stereo not drawn) + CCn1c(-c2cccnc2C(C)OC)c2c3cc(ccc31)N1CCOC(CC(NC(=O)C(C(C)C)N(C)C(=O)C3(F)CCN(C(=O)C#CC(C)(C)N(C)C)CC3)C(=O)N3CCCC(N3)C(=O)OCC(C)(C)C2)C1 . Could you help?
Result: 5.77

Query: Param readout= viability, T/C; system= 898857-211-R-J1-PDC complex spheroids, growth % test/control; entry= CC(C)n1nc(-c2ccc3oc(N)nc3c2)c2c(N)ncnc21 + CCn1c(-c2cc(N3CCN(C)CC3)cnc2C(C)OC)c2c3cc(ccc31)-c1csc(n1)CC(NC(=O)C1CC1C)C(=O)N1CCCC(N1)C(=O)OCC(C)(C)C2 ; returns value.
Result: 41.1

Query: Form entry - test system: 898857-211-R-J1-PDC complex spheroids, growth % test/control; read-out: viability, T/C; compound: O=C(c1ccc(F)c(F)c1Nc1ccc(I)cc1F)N1CC(O)([C@@H]2CCCCN2)C1 + CCn1c(-c2cccnc2C(C)OC)c2c3cc(ccc31)N1CCOC(CC(NC(=O)C(C(C)C)N(C)C(=O)C3(F)CCN(C(=O)C#CC(C)(C)N(C)C)CC3)C(=O)N3CCCC(N3)C(=O)OCC(C)(C)C2)C1
Result: 29.6
